Reference source for all entries: the supplement of paper PMC7877785

Could you please report measured self-splicing fitness (ln) for the items listed next?
ASSAY_COMMENT: self-splicing fitness, log relative to wild type (ln ratio); higher = more splicing; Tetrahymena group I intron in knt gene, E. coli kanamycin selection, DiMSum; sequences stand for … in CUCUCU…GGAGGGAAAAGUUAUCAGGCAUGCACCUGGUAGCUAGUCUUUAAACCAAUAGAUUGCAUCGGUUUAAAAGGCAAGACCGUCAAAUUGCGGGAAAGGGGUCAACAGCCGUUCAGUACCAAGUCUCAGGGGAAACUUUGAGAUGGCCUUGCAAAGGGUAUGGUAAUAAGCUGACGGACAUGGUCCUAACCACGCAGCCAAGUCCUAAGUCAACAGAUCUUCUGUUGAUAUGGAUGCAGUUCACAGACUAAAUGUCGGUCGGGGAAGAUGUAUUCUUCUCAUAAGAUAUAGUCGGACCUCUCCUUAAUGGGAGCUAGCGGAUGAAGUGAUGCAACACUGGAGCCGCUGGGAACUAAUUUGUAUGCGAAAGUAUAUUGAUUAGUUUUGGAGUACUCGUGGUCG;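 also: selection with 25 µg/mL kanamycin versus none on LB agar overnight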
EXPERIMENTAL_CONDITIONS: 30 °C
Give bare numbers.

Below are worked cases with known answers.
AAGGAGCAAUAUUACGUUUU: -3.02
UCUCAGCAAUAUUACGUCGA: -2.07
CACUAGCAAUAUUACGCCUU: -1.4
UACGAGCAAUAUUACGCACA: -3.08
GGAUAGCAAUAUUACGUCGU: -0.886
CUUUAGCAAUAUUACGGCCC: -1.71
CUCCAGCAAUAUUACGGCUA: -3.19
CCACAGCAAUAUUACGGGGG: -2.71
CGCGAGCAAUAUUACGGAGU: -4.33
CUGUAGCAAUAUUACGCAUU: -3.8

# return self-splicing fitness (ln) for each item in the list
1. AUACAGCAAUAUUACGGAAA
2. CAUUAGCAAUAUUACGGGUG
3. UCAGAGCAAUAUUACGGCCC
4. GCAAAGCAAUAUUACGAAUU
5. UAUCAGCAAUAUUACGCGUA
6. ACGAAGCAAUAUUACGAAGG

Result:
1: -3.24; 2: -3.18; 3: -2.13; 4: -2.67; 5: -0.493; 6: -2.21

# batch: return self-splicing fitness (ln) for each of the 3 sequences below
1. GGUUAGCAAUAUUACGACGA
2. CGUGAGCAAUAUUACGGUGU
3. CACCAGCAAUAUUACGUCGC

Result:
[-1.15, -3.79, -3.1]

* * *

For each entry below, report its self-splicing fitness (ln) value.
ASSAY_COMMENT: self-splicing fitness, log relative to wild type (ln ratio); higher = more splicing; Tetrahymena group I intron in knt gene, E. coli kanamycin selection, DiMSum; sequences stand for … in CUCUCU…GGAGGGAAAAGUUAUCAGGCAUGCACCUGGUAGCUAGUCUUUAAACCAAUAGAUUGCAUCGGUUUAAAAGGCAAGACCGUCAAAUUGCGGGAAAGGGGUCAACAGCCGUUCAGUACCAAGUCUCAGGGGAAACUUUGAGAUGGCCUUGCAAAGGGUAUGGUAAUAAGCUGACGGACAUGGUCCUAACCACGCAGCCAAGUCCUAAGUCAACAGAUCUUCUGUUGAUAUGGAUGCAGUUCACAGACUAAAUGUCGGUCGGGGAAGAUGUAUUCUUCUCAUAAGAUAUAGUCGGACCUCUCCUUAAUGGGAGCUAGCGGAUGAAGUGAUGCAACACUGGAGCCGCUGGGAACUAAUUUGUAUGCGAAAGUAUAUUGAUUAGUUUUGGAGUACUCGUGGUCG
EXPERIMENTAL_CONDITIONS: 37 °C
Numbers only.

Use these answered entries as a reference point.
CCCGAGCAAUAUUACGAUAG: -2.02
AACAAGCAAUAUUACGUCGG: -1.99

Proceeding to the next sequence to report its self-splicing fitness (ln).
Request: Any idea what self-splicing fitness (ln) was measured for UUCCAGCAAUAUUACGAUUC ?
Result: -2.04
